Values from ChEMBL document CHEMBL3988442

Target: Tyrosyl-tRNA synthetase, putative (Trypanosoma cruzi (strain CL Brener))
Assay: Trypanosoma cruzi tyrosyl tRNA synthetase (TcYRS) _High Tyrosine SOP; further: in the data most compounds retested in dose-response had high values
Assay type: functional
Set-up: scale not given: direction of the effect not stated beside the values
Details: 30 µM
# Percent Effect values compiled below
Please give a number only; it is taken to be in %.

COMPOUND	ASSAY SYSTEM	Percent Effect / %
Cc1cccc(-c2nc(CN(Cc3cccs3)CC3CCCO3)no2)c1 (stereo not given)	Tyrosyl-tRNA synthetase, putative (Trypanosoma cruzi (strain CL Brener))	-7.29
CCN(CC)CCNC(=O)c1cc(C(C)C)nc(N2CCCC2)n1	Tyrosyl-tRNA synthetase, putative (Trypanosoma cruzi (strain CL Brener))	0
Cc1nc(C(=O)N2CCC(Nc3cccnn3)CC2)cs1	Tyrosyl-tRNA synthetase, putative (Trypanosoma cruzi (strain CL Brener))	1.91

Tell me Percent Effect reported for Cc1nnc(N2CC[C@H]3C[C@H](C(=O)N4CCOCC4)O[C@H]3C2)s1 1.08

Fill in Percent Effect for record O=C(c1cccs1)N1CCC(n2nc(-c3ccco3)ccc2=O)CC1 9.68

Determine its reported Percent Effect: COc1ccccc1CC(=O)N1CCCC(n2nc(C)cc2C)C1 (stereo not given) -0.493

Entry CCCC(C)CN1CCC(n2cc(C3CCCC3)nn2)CC1 (stereo not given) needs its Percent Effect filled in; supply it. 6.01

Indicate its recorded Percent Effect; the compound in question is CN1N=C(C(=O)Nc2cc(F)ccc2OCC2CCCO2)CCC1=O (stereo not given) 1.94

Identify the reported Percent Effect for the following entry. CCOCCC(=O)Nc1cccc(Oc2ccccn2)c1 0

Specify reported Percent Effect for the compound shown: CNC(=O)Cc1ccc(NC(=O)NC(C)C(C)C)cc1 (stereo not given) 4.25

Please give the documented Percent Effect of CCn1ccc(C(=O)NCCCN2CCOCC2)n1 7.53

Supply measured Percent Effect of CCn1ccnc1CN1CCN(CC(=O)NC(C)(C#N)C2CC2)CC1 (stereo not given) in your reply. 5.39

Output Percent Effect of COCC(=O)N1CCCC1c1cc(Nc2nnc(C)s2)nc(C)n1 (stereo not given) 4.25

----------
// reported Percent Effect per item
Target: Tyrosyl-tRNA synthetase, putative (Trypanosoma cruzi (strain CL Brener)) (UniProt Q4DSP6)
Sequence (Q4DSP6 as listed by the source): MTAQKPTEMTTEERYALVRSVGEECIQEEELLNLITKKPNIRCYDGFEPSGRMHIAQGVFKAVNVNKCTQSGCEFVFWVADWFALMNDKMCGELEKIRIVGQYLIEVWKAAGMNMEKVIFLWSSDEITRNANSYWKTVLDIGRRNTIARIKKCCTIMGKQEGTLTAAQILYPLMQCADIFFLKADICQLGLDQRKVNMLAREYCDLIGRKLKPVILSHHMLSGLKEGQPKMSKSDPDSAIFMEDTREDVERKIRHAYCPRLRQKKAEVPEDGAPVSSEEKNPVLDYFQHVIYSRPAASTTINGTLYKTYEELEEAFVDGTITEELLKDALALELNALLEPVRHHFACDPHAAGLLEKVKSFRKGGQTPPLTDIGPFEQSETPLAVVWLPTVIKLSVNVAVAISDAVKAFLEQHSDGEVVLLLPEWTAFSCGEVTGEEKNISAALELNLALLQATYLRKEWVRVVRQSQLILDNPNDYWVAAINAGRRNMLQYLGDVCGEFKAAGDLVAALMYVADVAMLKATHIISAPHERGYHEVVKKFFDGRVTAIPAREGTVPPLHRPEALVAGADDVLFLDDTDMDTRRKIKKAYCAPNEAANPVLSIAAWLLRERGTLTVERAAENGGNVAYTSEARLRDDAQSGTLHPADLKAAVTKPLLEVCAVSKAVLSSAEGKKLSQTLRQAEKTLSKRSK
Experiment: Trypanosoma cruzi tyrosyl tRNA synthetase (TcYRS) SOP
Format: functional
Design: scale not given: direction of the effect not stated beside the values
Conditions: 30 µM
Report the figure in % without appending any unit label.

Illustrative cases are given below, each with its answer.
COMPOUND	Percent Effect [%]
O=C(CCC1CC1)N1C[C@@H](CN2CCCC2)[C@@H](CO)C1	6.17
CSCC(CCO)NC(=O)Nc1cccc(Br)c1 (stereo not drawn)	2.5
CC(C)c1nnc2ccc(N3CCC(C(N)=O)CC3)nn12	0
O=C(c1cscn1)N1CC[C@]2(C[C@@H](OCCN3CCCC3)CO2)C1	14.1
COc1ccc(OC)c(C2C3=C(COC3=O)Nc3[nH]nc(C)c32)c1 (stereo not drawn)	10.3
Cc1ccc(F)c(C(=O)N2CCN(S(C)(=O)=O)[C@@H](C)C2)c1	5
c1coc(CN2Cc3nccn3CC(Cn3cncn3)C2)c1 (stereo not drawn)	1.24
CC(c1ccc(Cl)cc1)N1CCN(CCNS(C)(=O)=O)CC1 (stereo not drawn)	19.5

Entry c1cnc(NCc2noc3c2CN(CCN2CCCC2)CC3)nc1 needs its Percent Effect filled in; supply it. 22.5

Supply measured Percent Effect of Cc1cnn(CCNCC(O)COc2ccc(C#N)cc2)c1 (stereo not drawn) in your reply. 13.9

Specify Percent Effect for CCOCCCC(=O)NCCC(=O)N1CCN(c2ccccn2)CC1 and stop. 13

Input Cc1noc(CN2CCN(CC(C)O)CC2)n1 (stereo not drawn) , output reported Percent Effect. 8.54

Read off the recorded Percent Effect for CCOCC(O)CN1CCN(C(=O)c2ccnc(N(C)C)c2)CC1 (stereo not drawn) 7.32

Tell me its Percent Effect given Cc1ccc(CNC(=O)CN2C=Nc3ccccc3S2(=O)=O)s1 as the entry. 23.5

Let me know recorded Percent Effect for CN(Cc1cccc(Cl)c1)S(=O)(=O)N1CCOCC1 , thanks. 15.6

Give the reported Percent Effect for this compound. O=C(NCc1ccccc1)N1CCC2(CC(=O)N(c3ccsc3)C2)C1 (stereo not drawn) 6.1

Identify measured Percent Effect associated with COc1ccc(C[C@H]2CN(c3nnc(C)s3)CC[C@@H]2OC)cc1 7.5

Tell me its Percent Effect given COC(=O)c1cc(C(=O)N2CCCCCC2)n(-c2ccccc2)n1 as the entry. 9.76

----------
Overview of recorded Percent Effect for various compounds
Target: AMP-activated protein kinase, AMPK (Homo sapiens) (UniProt P54646+O43741+P54619+Q9UGJ0+Q9Y478+Q13131+Q9UGI9)
Experiment: AMP-dependent Kinase enzyme assay. An in vitro enzyme assay that detects ADP turnover that is directly proportional to AMPK activity. This uses naive AMPK that is activated during the assay with MK-8722
Format: functional
Design: scale not given: direction of the effect not stated beside the values
Conditions: 30 µM
Express your answer in %, writing the number without its unit.

A selection of reference data follows.
COMPOUND	QUANTITATIVE RESULT
c1ccc(CN2CC[C@@H]3O[C@@H](COCC4CCOCC4)CC[C@@H]32)nc1	1.98
FC(F)(F)C1CCCn2c(CNCc3ccsc3)nnc21 (centres undefined)	-9.01
COC(=O)N1CCc2ccc(NC(=O)c3cn(C)nn3)cc2C1	2.87

Next:
Assign Percent Effect to the following record: Cc1ccc(CNC(=O)Nc2nnc(C)s2)cn1 1.54

----------
Biological target: Proteasome subunit beta (Trypanosoma cruzi) (UniProt O96673)
Sequence (whole entry): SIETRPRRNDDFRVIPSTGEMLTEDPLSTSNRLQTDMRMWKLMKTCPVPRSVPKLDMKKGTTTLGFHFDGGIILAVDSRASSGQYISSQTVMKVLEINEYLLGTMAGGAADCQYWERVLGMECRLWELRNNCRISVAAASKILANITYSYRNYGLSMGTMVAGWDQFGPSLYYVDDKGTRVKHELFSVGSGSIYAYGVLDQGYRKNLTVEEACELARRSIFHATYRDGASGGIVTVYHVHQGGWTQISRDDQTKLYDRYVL
Test: Trypanosoma cruzi proteasome chymotrypsin-like activity (TcProtChymo) assay. Further: in the data most compounds retested in dose-response had high values.
Type: functional
Parameters: scale not given: direction of the effect not stated beside the values
Details: 9.37 µM
Percent Effect reference
Number in %, nothing else.

Known Percent Effect results, listed for orientation:
COMPOUND	UNIT SYMBOL	QUANTITATIVE RESULT
CCO[C@@H]1CO[C@@]2(CCCN(Cc3scnc3C)C2)C1	%	9.85
CCNC(=O)N1CCCCC1CCO (stereo not given)	%	-0.69

Provide only the value of recorded Percent Effect for COCCNc1nc2c(c(NCc3ccncc3)n1)CCNCC2 13.8

Quick one: give measured Percent Effect for Cc1nn(CC(C)C)c(N(C)C)c1CNCc1cccc2c1OCO2 16.9

Identify measured Percent Effect corresponding to Cc1ncccc1OC1(C(=O)NCCCN2CCOCC2)CCNCC1 11.2

Using the record for OC[C@H]1CC[C@]2(CC1)CN(Cc1ccccc1F)Cc1ccccc1O2 , state its measured Percent Effect. 12.6

Give me measured Percent Effect, please, for this compound: COc1cccc(N2CCN(Cc3ccc(NC(C)=O)cc3)CC2=O)c1 11.6

Give Percent Effect for the following compound: Cc1nn(C)c2sc(C(=O)N3CCCC(n4ccnc4C)C3)cc12 (stereo not given) 8.92

Output measured Percent Effect for this item: O=C(COc1coc(CN2CCCC2)cc1=O)NCc1ccccc1Cl 7.02

Given the compound CC(C)c1nnc2n1CCN(CC(=O)Nc1sccc1C#N)C2 , write its reported Percent Effect. -3.13

Indicate its recorded Percent Effect; the compound in question is CNC(=O)CS(=O)(=O)C1CCN(S(=O)(=O)C2CC2)CC1 4.79

Quickly give me recorded Percent Effect for COCC1c2c(cnn2C)CCN1Cc1ccc(F)cc1 (stereo not given) 5.66

----------
Target: AMP-activated protein kinase, AMPK (Homo sapiens) (UniProt P54646+O43741+P54619+Q9UGJ0+Q9Y478+Q13131+Q9UGI9)
Test: AMP-dependent Kinase enzyme assay. An in vitro enzyme assay that detects ADP turnover that is directly proportional to AMPK activity. This uses naive AMPK that is activated during the assay with MK-8722
Type: functional
Parameters: scale not given: direction of the effect not stated beside the values
Details: 30 µM
# Percent Effect per entry
Hi! Could you send only the number? It should be in %, unit omitted.

Reference set, count: 6
MOLECULE	Percent Effect [%]
Nc1cc2c(nn1)CCN(C(=O)CC1CCCC1)C2	-4.63
CS(=O)(=O)N1CCC(C(=O)NC(Cc2ccsc2)c2nccs2)CC1 (stereo unspecified)	6.1
Cc1cc(C)cc(C2(C(=O)NC(C)Cn3ccnc3)CC2)c1 (stereo unspecified)	-10.3
Cc1ncc(CN(C)C2CCCN(Cc3noc(C4CC4)n3)C2)s1 (stereo unspecified)	-3.55
O=C(CCCc1cn[nH]c1)N1CCOCC(O)C1 (stereo unspecified)	-4.88
Cc1nc(CN(C)C2CCN(Cc3nc4ccccc4s3)C2)no1 (stereo unspecified)	-8.48

Supply recorded Percent Effect for CC(=O)Nc1ccc(CNC2CC(=O)N(Cc3cccc(F)c3)C2)cc1 (stereo unspecified) here. -1.25

Consider the molecule COc1c(C(=O)NCc2cccnc2)nnn1Cc1ccc(C)cc1 . State its measured Percent Effect. 1.61

Identify measured Percent Effect corresponding to CC(C)CC(=O)N1CCN(C(=O)N(C)C)CC2(CC(=O)N(C)C2)C1 (stereo unspecified) 0.411

Determine from records and report Percent Effect for Cc1nnc2n1CCN(Cc1ncc(-c3ccc(Cl)cc3)o1)C2 8.78

// fetch Percent Effect given entry CCOCC(O)CN1CCN(C(=O)c2cc(F)ccc2C)CC1 (stereo unspecified) -2.69

Given CN(Cc1ccc2c(c1)OCO2)Cc1nc2c(cnn2C)c(=O)[nH]1 , respond with its Percent Effect. 0.733
